- ASSAY: In vitro cytotoxicity by MTT assay, NCI-H226
- Format: cell-based
- CONDITION DESCRIPTION: human, NCI-H226 lung cancer cells, 0.015 μM, read-out: % Cytotoxicity (100 − % cell survival) of NCI-H226 cell line
Form field: cytotoxicity at 72 h, 0.015 µM (one value per entry).

ENTRY SMILES	cytotoxicity at 72 h, 0.015 µM
O=C(NS(=O)(=O)c1nnc(N=Cc2ccccc2)s1)c1ccccc1	34.8%
CC(=O)Nc1ccc(S(=O)(=O)Nc2nnc(S(=O)(=O)NC(=O)c3ccc(Cl)cc3)s2)cc1	35%
Nc1ccc(C(=O)NS(=O)(=O)c2nnc(NS(=O)(=O)c3ccc(N)cc3)s2)cc1	34%
Nc1nnc(S(=O)(=O)NC(=O)c2ccccc2)s1	23.1%
